These data points were gathered from patent US20230416261A1.

Biological target: PRMT1 (Homo sapiens, UniProt Q99873)
Sequence (Q99873 whole entry): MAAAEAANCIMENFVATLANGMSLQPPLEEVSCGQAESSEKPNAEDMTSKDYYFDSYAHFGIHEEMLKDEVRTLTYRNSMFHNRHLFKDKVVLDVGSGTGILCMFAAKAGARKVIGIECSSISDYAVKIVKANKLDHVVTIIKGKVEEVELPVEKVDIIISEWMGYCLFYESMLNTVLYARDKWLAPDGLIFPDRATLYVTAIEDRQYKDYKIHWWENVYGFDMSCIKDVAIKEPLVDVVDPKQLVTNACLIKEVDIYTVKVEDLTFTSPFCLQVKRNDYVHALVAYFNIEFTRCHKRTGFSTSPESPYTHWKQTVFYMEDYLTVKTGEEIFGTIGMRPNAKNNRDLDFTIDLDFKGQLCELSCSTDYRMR
Assay: PRMT1 RKO Cellular Target Engagement Assay (In-Cell Western, asymmetric di-methyl arginine)
Type: cell-based
Conditions: RKO cells, 48 hr compound incubation; read-out: RKO IC50 (PRMT-1 Target Engagement)
pIC50: −log10 of the molar value.
measure: pIC50

CNCCN(C)Cc1nn2c(c1C1CCC(COC)(COC)CC1)CN(C(=O)CC1CC1)CC2 ... 6.50
CNCCN(C)Cc1nn2c(c1C1CCC(COC)(COC)CC1)CN(C(=O)C1(F)CC1)CC2 ... 6.65
CCC1(C(=O)N2CCn3nc(CN(C)CCNC)c(C4CCC(COC)(COC)CC4)c3C2)CCC1 ... 6.56
COCC1(COC)CCC(c2c(CN(C)CCN)nn3c2CN(C(=O)C(C)C)CC3)CC1 ... 6.34
CNCCN(C)Cc1nn2c(c1C1CCC(COC)(COC)CC1)CN(C(=O)C13CC(C1)C3)CC2 ... 6.62

(a) COCC1(COC)CCC(c2c(CN(C)CCN)nn3c2CN(C(=O)CC(F)(F)F)CC3)CC1
(b) CNCCN(C)Cc1nn2c(c1C1CCC(COC)(COC)CC1)CN(C(=O)C1(OC)CC1)CC2
Select the item with the higher value of pIC50 from the options a and b listed. Write down the label attached to your selection. b
(b: 6.91, a: 6.16)

* * *

Molecular target: PRMT1 (Homo sapiens)
Test: PRMT1 RKO Cellular Target Engagement Assay (In-Cell Western, asymmetric di-methyl arginine)
Format: cell-based
Settings: RKO cells, 48 hr compound incubation; read-out: RKO IC50 (PRMT-1 Target Engagement)
pIC50: −log10 of the molar value.
measure: pIC50

CNCCN(C)Cc1nn2c(c1C1CCC(COC)(COC)CC1)CN(C(=O)C13CC(C#N)(C1)C3)CC2 [Example 22] ... 5.85
CNCCN(C)Cc1nn2c(c1C1CCC(COC)(COC)CC1)CN(C(=O)C(C)(C)C1CCC1)CC2 [Example 78] ... 6.72
CNCCN(C)Cc1nn2c(c1C1CCC(COC)(COC)CC1)CN(C(=O)CC#N)CC2 [Example 52] ... 6.79
COCC1(COC)CCC(c2c(CN(C)CCN)nn3c2CN(C(=O)C2(C(F)(F)F)CC2)CC3)CC1 [Example 46] ... 6.31

(a) CNCCN(C)Cc1nn2c(c1C1CCC(COC)(COC)CC1)CN(C(=O)C(C)C#N)CC2 (centres unmarked) [Example 38]
(b) CCOCC1(COCC)CCC(c2c(CN(C)CCNC)nn3c2CN(C(=O)C2CC2)CC3)CC1 [Example 4]
(c) CNCCN(C)Cc1nn2c(c1C1CCC(COC)(COC)CC1)CN(C(=O)C1(C)CC1)CC2 [Example 17]
(d) CNCCN(C)Cc1nn2c(c1C1CCC(COC)(COC)CC1)CN(C(=O)C1CC(C)(C)C1)CC2 [Example 39]
Arrange by pIC50, high to low. To answer, arrange all of the labels according to the requested order. b, d, c, a

* * *

Molecular target: PRMT1 (Homo sapiens)
Assay: PRMT1 RKO Cellular Target Engagement Assay (In-Cell Western, asymmetric di-methyl arginine)
Format: cell-based
Settings: RKO cells, 48 hr compound incubation; read-out: RKO IC50 (PRMT-1 Target Engagement)
measure: IC50 (nM)

Past entries and their recorded results:
COCC1(COC)CCC(c2c(CN(C)CCN)nn3c2CN(C(=O)C(C)(C)C(F)(F)F)CC3)CC1 ... 260
CNCCN(C)Cc1nn2c(c1C1CCC(COC)(COC)CC1)CN(C(=O)C1(C(F)(F)F)CC1)CC2 ... 137

(I) COCC1(COC)CCC(c2c(CN(C)CCN)nn3c2CN(C(=O)C2CC(C)(C)C2)CC3)CC1
(II) CNCCN(C)Cc1nn2c(c1C1CCC(COC)(COC)CC1)CN(C(=O)C1(OC)CCC1)CC2
Lab note: check whether I or II has the lower measured IC50. // respond with label for picked entry II
